src = ChEMBL document CHEMBL5579843

# Study target: Histone deacetylase 2 (Homo sapiens, UniProt Q92769)
# Sequence (Q92769 whole entry): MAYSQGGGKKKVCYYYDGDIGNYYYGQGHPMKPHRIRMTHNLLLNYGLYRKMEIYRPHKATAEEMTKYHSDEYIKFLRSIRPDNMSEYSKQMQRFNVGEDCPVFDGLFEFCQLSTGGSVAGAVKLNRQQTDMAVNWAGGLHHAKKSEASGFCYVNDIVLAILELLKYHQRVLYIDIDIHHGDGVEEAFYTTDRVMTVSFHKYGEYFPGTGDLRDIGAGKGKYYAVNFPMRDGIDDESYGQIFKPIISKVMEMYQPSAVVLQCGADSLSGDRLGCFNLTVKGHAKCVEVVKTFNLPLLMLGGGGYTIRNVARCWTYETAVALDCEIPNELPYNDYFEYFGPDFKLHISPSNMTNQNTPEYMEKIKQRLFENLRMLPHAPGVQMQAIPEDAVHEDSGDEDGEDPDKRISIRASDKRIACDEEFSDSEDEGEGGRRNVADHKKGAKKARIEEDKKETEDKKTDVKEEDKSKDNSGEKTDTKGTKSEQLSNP
# Protocol summary: Inhibition of HDAC2 (unknown origin)

{"columns": ["Compound string", "IC50, µM"],
 "data": [
  ["O=C(NO)c1ccc(CN2CCc3c(n(CC4CC4)c4ccc(F)cc34)C2)cc1", 19.3]
]}

###

// endpoint IC50 / system Histone deacetylase 1 (Homo sapiens)

{"columns": ["Compound string", "IC50, µM"],
 "data": [
  ["O=C(NO)c1ccc(CN2CCc3c([nH]c4ccccc34)C2)cc1", 16.5],
  ["COc1ccc2[nH]c3c(c2c1)CCN(Cc1ccc(/C=C/C(=O)NO)cc1)C3", 0.0108],
  ["COc1ccc2[nH]c3c(c2c1)CCN(Cc1ccc(C(=O)NO)cc1)C3", 23.7]
]}

###

Here we list molecules with their recorded pIC50 when tested on Protein deacetylase HDAC6 (Homo sapiens, UniProt Q9UBN7).
Sequence (Q9UBN7 whole entry): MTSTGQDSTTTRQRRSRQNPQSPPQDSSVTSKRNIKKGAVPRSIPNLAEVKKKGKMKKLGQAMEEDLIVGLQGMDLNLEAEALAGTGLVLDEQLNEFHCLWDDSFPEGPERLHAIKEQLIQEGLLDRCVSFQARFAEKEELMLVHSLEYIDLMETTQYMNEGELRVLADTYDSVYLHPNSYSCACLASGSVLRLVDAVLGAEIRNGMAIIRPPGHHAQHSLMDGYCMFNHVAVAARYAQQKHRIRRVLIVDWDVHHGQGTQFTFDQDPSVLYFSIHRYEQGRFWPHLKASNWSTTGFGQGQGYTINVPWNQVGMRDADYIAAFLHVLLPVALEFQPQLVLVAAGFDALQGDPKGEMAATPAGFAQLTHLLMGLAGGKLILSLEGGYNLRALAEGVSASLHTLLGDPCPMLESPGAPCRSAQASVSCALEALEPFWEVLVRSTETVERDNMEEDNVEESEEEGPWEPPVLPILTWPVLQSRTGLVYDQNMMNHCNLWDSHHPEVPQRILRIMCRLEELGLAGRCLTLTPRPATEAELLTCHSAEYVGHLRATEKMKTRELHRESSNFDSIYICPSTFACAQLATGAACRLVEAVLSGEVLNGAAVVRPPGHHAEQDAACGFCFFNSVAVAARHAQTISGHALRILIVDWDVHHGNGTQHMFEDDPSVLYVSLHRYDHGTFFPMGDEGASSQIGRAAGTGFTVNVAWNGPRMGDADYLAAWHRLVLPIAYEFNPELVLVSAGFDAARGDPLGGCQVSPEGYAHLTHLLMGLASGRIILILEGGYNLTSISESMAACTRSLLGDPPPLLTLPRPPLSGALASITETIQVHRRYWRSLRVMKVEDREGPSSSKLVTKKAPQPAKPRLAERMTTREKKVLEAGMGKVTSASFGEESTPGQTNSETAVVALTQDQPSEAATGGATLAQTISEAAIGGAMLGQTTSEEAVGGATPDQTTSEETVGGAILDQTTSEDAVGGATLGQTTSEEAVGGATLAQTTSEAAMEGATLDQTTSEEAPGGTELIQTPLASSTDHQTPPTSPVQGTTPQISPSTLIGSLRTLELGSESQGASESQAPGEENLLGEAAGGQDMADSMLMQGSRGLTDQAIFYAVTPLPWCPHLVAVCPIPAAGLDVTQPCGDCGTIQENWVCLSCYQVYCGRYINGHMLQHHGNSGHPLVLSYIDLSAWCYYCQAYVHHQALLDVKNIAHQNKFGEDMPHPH
pIC50: −log10 of the molar value.

{"columns": ["Molecule", "pIC50"],
 "data": [
  ["O=C(NO)c1ccc(C2NCCc3c2[nH]c2ccccc32)cc1 (stereo not drawn)", "< 6.00"],
  ["O=C(NO)c1ccc(CN2CCc3c([nH]c4ccccc34)C2)cc1", 7.86],
  ["O=C(NO)c1ccc(C2c3[nH]c4ccccc4c3CCN2Cc2ccccc2)cc1 (stereo not drawn)", "< 6.00"]
]}
